Target: human CD33 R111A (human, UniProt P20138 18-364)
Sequence (P20138 18-364 R111A limits assumed): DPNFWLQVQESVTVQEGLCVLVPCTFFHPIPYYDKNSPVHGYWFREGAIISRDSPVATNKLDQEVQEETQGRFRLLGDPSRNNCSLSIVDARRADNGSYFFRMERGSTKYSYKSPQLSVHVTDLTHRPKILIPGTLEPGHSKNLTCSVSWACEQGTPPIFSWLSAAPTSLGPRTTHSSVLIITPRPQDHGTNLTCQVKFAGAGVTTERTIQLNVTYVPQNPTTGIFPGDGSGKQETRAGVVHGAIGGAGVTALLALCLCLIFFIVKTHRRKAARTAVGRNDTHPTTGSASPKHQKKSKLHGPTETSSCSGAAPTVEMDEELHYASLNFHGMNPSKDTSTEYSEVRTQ
Assay: flow cytometry on HEK293-T, alanine scan
Consider the following binders and their measured Mean % WT Binding readings.

| BINDER | UNIT ANNOTATION | Mean % WT Binding |
| --- | --- | --- |
| Refmab #2 (antibody, V domains shown, The alanine scan used IgG or Fab) VH: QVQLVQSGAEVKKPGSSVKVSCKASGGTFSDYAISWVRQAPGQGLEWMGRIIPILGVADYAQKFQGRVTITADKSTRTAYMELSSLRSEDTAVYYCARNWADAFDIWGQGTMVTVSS VL: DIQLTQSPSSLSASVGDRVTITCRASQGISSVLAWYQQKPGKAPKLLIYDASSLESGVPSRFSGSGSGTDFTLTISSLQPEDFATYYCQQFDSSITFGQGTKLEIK | % WT binding | 108 |
| Refmab #4 (antibody, V domains shown, The alanine scan used IgG or Fab) VH: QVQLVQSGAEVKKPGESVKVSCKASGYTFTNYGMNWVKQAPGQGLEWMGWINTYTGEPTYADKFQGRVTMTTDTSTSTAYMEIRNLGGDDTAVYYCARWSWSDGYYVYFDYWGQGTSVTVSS VL: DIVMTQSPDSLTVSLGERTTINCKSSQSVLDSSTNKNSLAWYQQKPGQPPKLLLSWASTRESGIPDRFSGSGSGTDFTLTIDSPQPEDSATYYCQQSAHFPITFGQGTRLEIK | % WT binding | 94.3 |
| Refmab #3 (antibody, V domains shown, The alanine scan used IgG or Fab) VH: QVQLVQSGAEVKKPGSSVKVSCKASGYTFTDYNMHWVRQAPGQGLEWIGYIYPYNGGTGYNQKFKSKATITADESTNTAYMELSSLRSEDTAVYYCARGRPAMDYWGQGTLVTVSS VL: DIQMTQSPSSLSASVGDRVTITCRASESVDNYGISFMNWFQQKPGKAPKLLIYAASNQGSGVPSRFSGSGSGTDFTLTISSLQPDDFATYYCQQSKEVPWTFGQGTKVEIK | % WT binding | 93.4 |
| Refmab #1 (antibody, V domains shown, The alanine scan used IgG or Fab; also called hP67.6) VH: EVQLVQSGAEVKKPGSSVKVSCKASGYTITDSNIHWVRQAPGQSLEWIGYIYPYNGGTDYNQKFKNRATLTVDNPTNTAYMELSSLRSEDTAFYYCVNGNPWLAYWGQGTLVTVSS VL: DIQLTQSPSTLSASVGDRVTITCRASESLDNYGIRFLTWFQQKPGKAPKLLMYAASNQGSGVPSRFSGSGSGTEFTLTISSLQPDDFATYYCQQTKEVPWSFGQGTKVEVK | % WT binding | 100 |
